- MEASUREMENT_TARGET: C3 purified from fresh human plasma (human, UniProt P01024 23-1663)
- Sequence (P01024 23-1663): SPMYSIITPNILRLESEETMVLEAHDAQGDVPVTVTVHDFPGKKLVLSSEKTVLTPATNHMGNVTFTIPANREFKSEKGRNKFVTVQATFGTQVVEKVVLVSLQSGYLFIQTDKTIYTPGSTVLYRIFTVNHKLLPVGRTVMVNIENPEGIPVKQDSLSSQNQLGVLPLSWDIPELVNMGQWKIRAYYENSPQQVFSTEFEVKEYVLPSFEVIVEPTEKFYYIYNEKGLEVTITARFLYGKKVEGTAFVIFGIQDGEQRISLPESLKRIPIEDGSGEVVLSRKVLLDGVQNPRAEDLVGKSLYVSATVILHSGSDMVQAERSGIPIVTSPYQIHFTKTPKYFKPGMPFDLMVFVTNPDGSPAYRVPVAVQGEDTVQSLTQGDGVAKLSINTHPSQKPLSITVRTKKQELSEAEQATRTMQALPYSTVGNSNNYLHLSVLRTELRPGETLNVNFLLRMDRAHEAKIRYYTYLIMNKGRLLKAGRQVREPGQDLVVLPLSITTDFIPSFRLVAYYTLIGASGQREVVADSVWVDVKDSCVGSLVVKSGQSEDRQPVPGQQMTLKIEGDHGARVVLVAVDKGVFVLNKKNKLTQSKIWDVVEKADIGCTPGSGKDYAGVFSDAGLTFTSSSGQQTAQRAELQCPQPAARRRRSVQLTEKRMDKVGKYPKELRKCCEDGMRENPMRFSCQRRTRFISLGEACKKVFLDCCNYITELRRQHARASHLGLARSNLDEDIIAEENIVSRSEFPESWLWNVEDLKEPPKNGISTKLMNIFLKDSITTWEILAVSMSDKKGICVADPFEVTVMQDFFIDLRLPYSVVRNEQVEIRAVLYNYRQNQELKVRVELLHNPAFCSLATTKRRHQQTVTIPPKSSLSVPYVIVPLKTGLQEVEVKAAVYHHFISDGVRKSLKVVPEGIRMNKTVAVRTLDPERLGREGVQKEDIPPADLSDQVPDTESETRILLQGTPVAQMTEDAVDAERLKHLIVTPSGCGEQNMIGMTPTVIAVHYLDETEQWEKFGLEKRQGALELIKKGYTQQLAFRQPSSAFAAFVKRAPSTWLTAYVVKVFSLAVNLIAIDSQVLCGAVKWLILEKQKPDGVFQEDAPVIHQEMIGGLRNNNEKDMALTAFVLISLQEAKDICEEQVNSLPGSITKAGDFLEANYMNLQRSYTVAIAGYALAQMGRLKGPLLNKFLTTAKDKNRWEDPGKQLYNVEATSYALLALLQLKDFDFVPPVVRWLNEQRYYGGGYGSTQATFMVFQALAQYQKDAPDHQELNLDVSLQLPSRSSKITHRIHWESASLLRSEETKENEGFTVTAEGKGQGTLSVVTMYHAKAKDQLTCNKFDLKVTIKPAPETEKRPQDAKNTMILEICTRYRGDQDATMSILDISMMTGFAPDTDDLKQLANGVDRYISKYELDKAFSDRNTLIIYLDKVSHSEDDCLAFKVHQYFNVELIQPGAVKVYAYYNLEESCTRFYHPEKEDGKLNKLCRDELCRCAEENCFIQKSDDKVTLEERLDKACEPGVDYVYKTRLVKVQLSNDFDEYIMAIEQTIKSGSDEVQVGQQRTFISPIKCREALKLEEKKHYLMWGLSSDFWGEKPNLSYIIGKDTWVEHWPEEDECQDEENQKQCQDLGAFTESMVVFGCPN
- TEST_NAME: cell-based or functional assay
Bridge positions count the residues as written; N and C are the ends. Square brackets hold non-standard residues; d marks the D form. NMeD = CN[C@@H](CC(=O)O)C(=O)O; NMeC = CN[C@@H](CS)C(=O)O

[
  {
    "BINDER": "Ac-ICVYQ[NMeD]WGAHRCT-NH2 (disulfide 2-12; SMILES CC[C@H](C)[C@H](NC(C)=O)C(=O)N[C@H]1CSSC[C@@H](C(=O)N[C@H](C(N)=O)[C@@H](C)O)NC(=O)[C@H](CCCNC(=N)N)NC(=O)[C@H](Cc2c[nH]cn2)NC(=O)[C@H](C)NC(=O)CNC(=O)[C@H](Cc2c[nH]c3ccccc23)NC(=O)[C@H](CC(=O)O)N(C)C(=O)[C@H](CCC(N)=O)NC(=O)[C@H](Cc2ccc(O)cc2)NC(=O)[C@H](C(C)C)NC1=O) [Ac-I[CVYQ(NMe)DWGAHRC]T-NH2]",
    "SCALE_UNIT": "fold",
    "IC50-fold change relative to peptide 1": 0.06
  },
  {
    "BINDER": "Ac-I[NMeC]VYQDWGAHRCT-NH2 (disulfide 2-12; SMILES CC[C@H](C)[C@H](NC(C)=O)C(=O)N(C)[C@H]1CSSC[C@@H](C(=O)N[C@H](C(N)=O)[C@@H](C)O)NC(=O)[C@H](CCCNC(=N)N)NC(=O)[C@H](Cc2c[nH]cn2)NC(=O)[C@H](C)NC(=O)CNC(=O)[C@H](Cc2c[nH]c3ccccc23)NC(=O)[C@H](CC(=O)O)NC(=O)[C@H](CCC(N)=O)NC(=O)[C@H](Cc2ccc(O)cc2)NC(=O)[C@H](C(C)C)NC1=O) [Ac-I[(NMe)CVYQDWGAHRC]T-NH2]",
    "SCALE_UNIT": "fold",
    "IC50-fold change relative to peptide 1": 0.3
  }
]
